molecular target: BRG-1 (Homo sapiens, UniProt P51532); experiment: ATPase catalytic activity assay of BRG-1 (ADP-Glo); assay type: biochemical; conditions: ATPase catalytic activity, ADP-Glo; read-out: BRG1 IC50 (μM)*
Sequence (P51532 whole entry): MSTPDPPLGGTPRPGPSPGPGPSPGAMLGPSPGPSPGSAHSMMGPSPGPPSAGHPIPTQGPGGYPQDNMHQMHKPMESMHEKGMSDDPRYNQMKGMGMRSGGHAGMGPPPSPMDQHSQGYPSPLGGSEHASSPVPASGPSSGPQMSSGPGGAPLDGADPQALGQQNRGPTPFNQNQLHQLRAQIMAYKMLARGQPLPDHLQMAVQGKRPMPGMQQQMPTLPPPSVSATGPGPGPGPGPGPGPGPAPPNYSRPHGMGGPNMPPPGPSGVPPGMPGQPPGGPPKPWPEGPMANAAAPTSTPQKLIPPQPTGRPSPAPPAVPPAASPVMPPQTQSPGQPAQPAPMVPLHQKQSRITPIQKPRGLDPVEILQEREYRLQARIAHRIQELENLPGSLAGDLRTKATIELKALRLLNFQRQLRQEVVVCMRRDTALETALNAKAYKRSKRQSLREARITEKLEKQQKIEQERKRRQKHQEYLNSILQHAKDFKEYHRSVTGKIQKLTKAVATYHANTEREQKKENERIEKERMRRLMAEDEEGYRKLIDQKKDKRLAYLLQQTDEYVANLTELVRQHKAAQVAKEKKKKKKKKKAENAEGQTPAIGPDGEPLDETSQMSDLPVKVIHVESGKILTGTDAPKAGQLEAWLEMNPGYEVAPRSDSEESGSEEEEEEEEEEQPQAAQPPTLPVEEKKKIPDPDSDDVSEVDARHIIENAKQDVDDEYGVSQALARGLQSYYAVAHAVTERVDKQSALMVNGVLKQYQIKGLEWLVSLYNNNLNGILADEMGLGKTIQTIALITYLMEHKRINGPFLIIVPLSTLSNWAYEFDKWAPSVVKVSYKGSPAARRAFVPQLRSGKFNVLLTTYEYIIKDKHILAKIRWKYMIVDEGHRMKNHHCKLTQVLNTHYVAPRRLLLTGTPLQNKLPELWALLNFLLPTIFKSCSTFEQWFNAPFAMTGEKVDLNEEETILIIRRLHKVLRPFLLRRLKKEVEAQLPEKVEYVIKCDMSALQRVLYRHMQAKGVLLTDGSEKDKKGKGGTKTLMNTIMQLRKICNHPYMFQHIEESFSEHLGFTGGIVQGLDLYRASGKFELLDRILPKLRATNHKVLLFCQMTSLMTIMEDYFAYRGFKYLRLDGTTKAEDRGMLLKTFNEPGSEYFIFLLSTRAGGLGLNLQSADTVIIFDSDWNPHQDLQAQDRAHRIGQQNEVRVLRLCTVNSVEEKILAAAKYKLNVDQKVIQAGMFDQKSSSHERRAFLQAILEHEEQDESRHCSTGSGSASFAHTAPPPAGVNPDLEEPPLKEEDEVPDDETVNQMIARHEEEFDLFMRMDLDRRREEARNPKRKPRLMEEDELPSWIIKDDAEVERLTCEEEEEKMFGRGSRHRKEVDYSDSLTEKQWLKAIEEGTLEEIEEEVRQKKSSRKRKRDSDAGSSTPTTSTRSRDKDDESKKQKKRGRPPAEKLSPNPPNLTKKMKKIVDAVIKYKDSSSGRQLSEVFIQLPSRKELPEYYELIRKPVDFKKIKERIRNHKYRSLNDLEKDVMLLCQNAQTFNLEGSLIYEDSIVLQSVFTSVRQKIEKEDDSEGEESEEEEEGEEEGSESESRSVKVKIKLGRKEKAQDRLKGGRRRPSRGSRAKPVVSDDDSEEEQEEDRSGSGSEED
READOUT TYPE: IC50

1) CC1(CO)CCc2ccc(C(=O)NCC(=O)Nc3nc(-c4cccc(-c5ccncc5)c4)cs3)cc21 (stereo not drawn) [Compound 102]	0.1 to 1 µM
2) CC(C)(CN)c1cccc(C(=O)NCC(=O)Nc2nc(-c3cccc(-c4ccnc(C(F)(F)F)c4)c3)cs2)c1	1 to 5 µM
3) C[C@@H]1CN(c2cccc(-c3csc(NC(=O)CNC(=O)c4ccc5c(c4)[C@](C)(CO)CC5)n3)n2)C[C@H](C)O1	1 to 5 µM
4) Cc1cc(C(=O)NCC(=O)Nc2nc(-c3cccc(-c4ccncc4)c3)cs2)cc(C(C)(C)C#N)c1C	> 5 µM
5) C[C@@]1(F)COCc2ccc(C(=O)NCC(=O)Nc3nc(-c4ccccc4)cs3)cc21	0.1 to 1 µM
6) CC1(C#N)CCc2ccc(C(=O)NCC(=O)Nc3nc(-c4cccc(-c5ccncc5)c4)cs3)cc21 (single isomer, unassigned) [Compound 103]	< 0.1 µM
7) COc1cc(-c2cccc(-c3csc(NC(=O)CNC(=O)c4cccc(S(=O)(=O)C(C)C)c4)n3)c2)nc(C)n1	0.1 to 1 µM
8) C[C@@H]1CN(c2cccc(-c3csc(NC(=O)CNC(=O)c4ccc5c(c4)C4(CCO5)CCO4)n3)n2)C[C@H](C)O1 (stereo partly drawn)	1 to 5 µM
9) CC(=O)NCc1cccc(-c2cccc(-c3csc(NC(=O)CNC(=O)c4cccc(S(=O)(=O)C(C)C)c4)n3)c2)c1	> 5 µM
10) C[C@@H]1CN(c2cccc(-c3csc(NC(=O)CNC(=O)c4ccc5c(c4)C(O)(C(F)F)COC5)n3)c2)C[C@H](C)O1 (stereo partly drawn)	0.1 to 1 µM
11) CC1(F)COCc2ccc(C(=O)NCC(=O)Nc3nc(-c4cccc(N5CCC5)c4)cs3)cc21 (stereo not drawn)	0.1 to 1 µM
12) CC(C)S(=O)(=O)c1cccc(C(=O)NCC(=O)Nc2nc(-c3cccc(N4CCOCC4)c3)cs2)c1	1 to 5 µM
13) CNc1cc(-c2cccc(-c3csc(NC(=O)CNC(=O)c4cccc(C(C)(C)CN)c4)n3)c2)ccn1	0.1 to 1 µM
14) Cc1cc(-c2cccc(-c3csc(NC(=O)CNC(=O)c4cc(C)c(C)c(C(C)(C)CN)c4)n3)c2)cc(C)n1	1 to 5 µM
15) Cn1ccc(-c2cccc(-c3csc(NC(=O)CNC(=O)c4cccc(C(C)(C)CN)c4)n3)c2)n1	> 5 µM
16) CC1(C)c2cc(C(=O)NCC(=O)Nc3nc(-c4cccc(-c5ccncc5)c4)cs3)ccc2C[C@@H]1N	> 5 µM
17) C[C@@H]1CN(c2cccc(-c3csc(NC(=O)CNC(=O)c4ccc5c(c4)C(C)(C#N)OCC5)n3)n2)C[C@H](C)O1 (stereo partly drawn)	1 to 5 µM
18) Cc1cc(-c2cccc(-c3csc(NC(=O)CNC(=O)c4ccc5c(c4)[C@](C)(C#N)CC5)n3)n2)ncn1	< 0.1 µM
19) C[C@@H]1CN(c2cccc(-c3csc(NC(=O)CNC(=O)c4cnc5c(c4)[C@@](C)(C#N)CC5)n3)c2)C[C@H](C)O1	1 to 5 µM
20) CC(C(F)(F)F)S(=O)(=O)c1cccc(C(=O)NCC(=O)Nc2nc(-c3cccc(-c4ccncc4)c3)cs2)c1 (stereo not drawn) [Compound 113]	0.1 to 1 µM
21) C[C@@H]1CN(c2cccc(-c3csc(NC(=O)CNC(=O)c4cccc(C5(C(F)F)CCOC5)c4)n3)c2)C[C@H](C)O1 (stereo partly drawn)	1 to 5 µM
22) Cc1cc(-c2cccc(-c3csc(NC(=O)CNC(=O)c4ccc5c(c4)[C@](C)(CO)CC5)n3)n2)ncn1	0.1 to 1 µM
23) C[C@@H]1CN(c2cccc(-c3csc(NC(=O)CNC(=O)c4ccc5c(c4)[C@H](CO)CC5)n3)n2)C[C@H](C)O1	> 5 µM
24) CC(C)S(=O)(=O)c1cccc(C(=O)NCC(=O)Nc2nc(-c3cccc(-c4cccnc4)c3)cs2)c1	1 to 5 µM
25) C[C@@]1(C#N)COCc2ccc(C(=O)NCC(=O)Nc3nc(-c4cccc([C@H]5CCO5)c4)cs3)cc21	0.1 to 1 µM
26) Cc1nccc(-c2cccc(-c3csc(NC(=O)CNC(=O)c4ccc5c(c4)[C@@](C)(CO)CCC5)n3)n2)n1	> 5 µM
27) CN1CCc2ccc(-c3csc(NC(=O)CNC(=O)c4ccc5c(c4)[C@@](C)(CO)CC5)n3)cc2C1=O	1 to 5 µM
